Where do these numbers come from? They come from paper PMC6690746.

Provide the reported pEC50 of each item.
Tested on: T98G cells
TEST_DETAILS: Antitumor activity
Assay type: cell-based, human
SETTINGS: Homo sapiens, 72 h, read-out: Antitumor activity EC50
The value called pEC50 is obtained by taking minus log10 of the concentration in mol/L.

q: Look up pEC50 with T98G cells for this molecule: COc1ccc(/C=C\c2cc(OC)c(OC)c(OC)c2)cc1O [Compound 1, combretastatin A-4, reference compound]
a: 9.22

q: I'm curious: which pEC50 was measured for COC(=O)Nc1nc2cc(C(=O)c3cccs3)ccc2[nH]1 [Compound 3, nocodazole, reference compound] tested on T98G cells?
a: 7.54
